# System: P. falciparum 3D7 growth, pLDH absorbance
# TEST DETAILS: blood-stage malaria parasite growth potency – strain 3D7, dose response (AID 2305)
EXPERIMENTAL ENDPOINT: IC50 (nM)
Reply numerically in nM, unit not repeated.

The cases that follow already have their IC50 on record.
Cc1nc2nc(N)nc(N)c2c(C)c1Cc1ccc(N)cc1 ... 640
Clc1ccc(OCc2ccccc2)c(-c2nc(-c3nc4ncc(Br)cc4[nH]3)cs2)c1 ... 210
CCCC[C@H](NC(=O)O[C@H](COc1ccc(OCc2ccccc2)cc1)C(C)(C)C)C(=O)C(=O)Nc1ccn[nH]1 ... 990

Enquiry: # IC50 lookup, item CCCC1N=C(N)N=C(N)N1c1ccc(OC)cc1 (stereo not given)
Return: 230

Enquiry: // query: CC(=O)Nc1ccc(CN(Cc2ccc(F)cc2)Cc2ccc3c(c2)OCO3)cc1
Return: 940
